Each entry below carries its measured AC50, system: Sodium-dependent noradrenaline transporter (Homo sapiens, UniProt P23975). Also: assay procedure not described here.
Sequence (P23975 whole entry): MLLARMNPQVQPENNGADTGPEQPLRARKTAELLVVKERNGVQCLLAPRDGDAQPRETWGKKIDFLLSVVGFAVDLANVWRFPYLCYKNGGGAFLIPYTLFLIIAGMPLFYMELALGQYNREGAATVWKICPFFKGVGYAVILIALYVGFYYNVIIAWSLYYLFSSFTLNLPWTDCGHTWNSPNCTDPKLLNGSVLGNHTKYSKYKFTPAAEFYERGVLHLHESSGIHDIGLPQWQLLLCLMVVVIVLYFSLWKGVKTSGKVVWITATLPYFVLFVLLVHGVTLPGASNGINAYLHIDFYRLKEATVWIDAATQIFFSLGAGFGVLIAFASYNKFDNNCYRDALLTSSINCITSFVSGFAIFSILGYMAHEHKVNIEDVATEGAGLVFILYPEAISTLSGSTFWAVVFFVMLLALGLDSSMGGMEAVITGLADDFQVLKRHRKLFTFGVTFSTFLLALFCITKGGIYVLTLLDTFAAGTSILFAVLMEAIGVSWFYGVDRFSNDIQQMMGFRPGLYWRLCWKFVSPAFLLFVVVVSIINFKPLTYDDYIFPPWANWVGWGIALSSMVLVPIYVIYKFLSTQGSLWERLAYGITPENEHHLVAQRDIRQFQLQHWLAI

Some solved entries appear below for comparison.
molecule	AC50
CNS(=O)(=O)Cc1ccc2[nH]cc(CCN(C)C)c2c1	> 10 µM
N#Cc1ccc([C@H]2CCc3cncn32)c(F)c1 [OSILODROSTAT]	> 10 µM
C[C@]12CC[C@H]3[C@@H](CCC4=CC(=O)CC[C@@]43C)[C@@H]1CC[C@@H]2O [TESTOSTERONE]	> 10 µM
CN(C)/N=N/c1[nH]cnc1C(N)=O [DACARBAZINE]	> 10 µM

// AC50 lookup, molecule = CC1=C(C(=O)O)N2C(=O)[C@@H](NC(=O)[C@H](N)c3ccccc3)[C@H]2SC1 [CEPHALEXIN ANHYDROUS] , result: > 10 µM

// AC50 lookup, molecule = CN1C(C(=O)Nc2ccccn2)=C(O)c2sc(Cl)cc2S1(=O)=O [LORNOXICAM] , result: > 30 µM

// AC50 lookup, molecule = O=[N+]([O-])O[C@@H]1CO[C@H]2[C@@H]1OC[C@@H]2O [ISOSORBIDE MONONITRATE] , result: > 10 µM

// AC50 lookup, molecule = CC(CC(c1ccccc1)c1ccccc1)NC(C)(C)C (centres undefined) [TERODILINE] , result: > 30 µM

// AC50 lookup, molecule = Cc1ccc(-c2cc(C(F)(F)F)nn2-c2ccc(S(N)(=O)=O)cc2)cc1 [CELECOXIB] , result: 15.7 µM

// AC50 lookup, molecule = C=CCN1C[C@H](C(=O)N(CCCN(C)C)C(=O)NCC)C[C@@H]2c3cccc4[nH]cc(c34)C[C@H]21 [CABERGOLINE] , result: 8.7 µM

// AC50 lookup, molecule = CN(C)CC/C=C1\c2ccccc2CSc2ccccc21 [DOTHIEPIN] , result: 0.8 µM

// AC50 lookup, molecule = COc1ccccc1N1CCN(CC(O)COc2cccc3ccccc23)CC1 (centres undefined) [NAFTOPIDIL] , result: 9.6 µM

// AC50 lookup, molecule = CO[C@H]1C[C@@H]2CC[C@@H](C)[C@@](O)(O2)C(=O)C(=O)N2CCCC[C@H]2C(=O)O[C@H]([C@H](C)C[C@@H]2CC[C@@H](O)[C@H](OC)C2)CC(=O)[C@H](C)/C=C(\C)[C@@H](O)[C@@H](OC)C(=O)[C@H](C)C[C@H](C)/C=C/C=C/C=C/1C [SIROLIMUS] , result: > 30 µM

// AC50 lookup, molecule = C[C@H]1COc2c(C3(N)CC3)c(F)cc3c(=O)c(C(=O)O)cn1c23 [PAZUFLOXACIN] , result: > 10 µM
